Molecular target: mouse Tas2r105 (Mus musculus, UniProt Q9JKT4)
Construct: expressed in transfected cells; host or cells: HEK293T-Gα16gust44
Sequence (Q9JKT4 whole entry): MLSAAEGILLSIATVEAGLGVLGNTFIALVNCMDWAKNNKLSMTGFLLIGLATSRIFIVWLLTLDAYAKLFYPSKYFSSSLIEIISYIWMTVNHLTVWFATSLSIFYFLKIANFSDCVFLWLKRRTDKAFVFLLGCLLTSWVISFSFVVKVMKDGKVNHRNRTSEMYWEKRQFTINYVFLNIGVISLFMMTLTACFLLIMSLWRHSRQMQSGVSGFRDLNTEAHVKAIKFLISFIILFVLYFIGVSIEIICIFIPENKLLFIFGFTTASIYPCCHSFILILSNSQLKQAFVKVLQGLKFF
Experiment: Calcium imaging assay (FLIPR), HEK293T-Gα16gust44 cells transfected with mouse Tas2r105
Format: cell-based
Conditions: Time 124.781 s
Method: This set of bile acids was chosen because of their commercial availability in high purities, their diversity within the class of bile acids and their previous detection and quantitation in human blood. Stock solutions were prepared in DMSO. […] Measured data were negative control corrected by subtracting the signal of the mock-transfected cells and exported to Microsoft Excel using the FLIPR software ScreenWorks 4.2. […]
# RLU listing for each entry below

[
  {
    "compound": "C[C@H](CCC(=O)O)[C@H]1CC[C@H]2[C@@H]3CC[C@@H]4C[C@H](O)CC[C@]4(C)[C@H]3CC[C@]12C [Lithocholic Acid, lithocholic acid]",
    "RLU (RLU)": 270.165
  },
  {
    "compound": "C[C@H](CCC(=O)O)[C@H]1CC[C@H]2[C@@H]3[C@H](O)C[C@@H]4C[C@H](O)CC[C@]4(C)[C@H]3C[C@H](O)[C@]12C [Cholic Acid, cholic acid]",
    "RLU (RLU)": 581.753
  },
  {
    "compound": "C[C@H](CCC(=O)O)[C@H]1CC[C@H]2[C@@H]3CC[C@@H]4C[C@H](O)CC[C@]4(C)[C@H]3C[C@H](O)[C@]12C [Deoxycholic Acid, deoxycholic acid]",
    "RLU (RLU)": 179.508
  },
  {
    "compound": "C[C@H](CCC(=O)NCC(=O)O)[C@H]1CC[C@H]2[C@@H]3[C@H](O)C[C@@H]4C[C@H](O)CC[C@]4(C)[C@H]3C[C@H](O)[C@]12C [Glycocholic Acid, glycocholic acid]",
    "RLU (RLU)": 530.193
  }
]

* * *

Target: human TAS2R1 (Homo sapiens)
Construct: expressed in transfected cells; host or cells: HEK293T-Gα16gust44
Sequence (Q9NYW7 whole entry): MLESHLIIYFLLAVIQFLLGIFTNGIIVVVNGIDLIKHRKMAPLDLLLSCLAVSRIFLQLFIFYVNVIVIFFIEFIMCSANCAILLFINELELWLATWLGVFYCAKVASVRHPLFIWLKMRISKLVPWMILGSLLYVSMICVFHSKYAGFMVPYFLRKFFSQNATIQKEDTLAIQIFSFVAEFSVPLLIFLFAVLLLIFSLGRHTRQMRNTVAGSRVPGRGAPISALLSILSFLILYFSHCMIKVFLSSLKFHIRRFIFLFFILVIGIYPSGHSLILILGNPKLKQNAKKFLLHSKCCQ
Experiment: Calcium imaging assay (FLIPR), HEK293T-Gα16gust44 cells transfected with human TAS2R1
Format: cell-based
Conditions: Time 66.796 s
Known RLU of a selection of molecules
assay-readout: RLU (RLU)

[
  {
    "compound": "C[C@H](CCC(=O)O)[C@H]1CC[C@H]2[C@@H]3[C@H](O)C[C@@H]4C[C@H](O)CC[C@]4(C)[C@H]3CC[C@]12C",
    "recorded-measurement": 861.974
  },
  {
    "compound": "C[C@H](CCC(=O)O)[C@H]1CC[C@H]2[C@@H]3[C@H](O)C[C@@H]4C[C@H](O)CC[C@]4(C)[C@H]3C[C@H](O)[C@]12C",
    "recorded-measurement": 754.307
  },
  {
    "compound": "C[C@H](CCC(=O)O)[C@H]1CC[C@H]2[C@@H]3CC[C@@H]4C[C@H](O)CC[C@]4(C)[C@H]3CC[C@]12C",
    "recorded-measurement": 840.236
  },
  {
    "compound": "C[C@H](CCC(=O)O)[C@H]1CC[C@H]2[C@@H]3[C@@H](O)C[C@@H]4C[C@H](O)CC[C@]4(C)[C@H]3CC[C@]12C",
    "recorded-measurement": 672.518
  }
]
